ASSAY TEXT: Phase 1b study in RYR1-Related Myopathy patients, plasma pharmacokinetics
Assay type: in vivo, human (RYR1-Related Myopathy patients)
ASSAY CONDITIONS: human, plasma, po, 120 mg, single oral 120 mg, Day 1, three subjects, arithmetic mean; read-out: AUC0-t
MEASURE: AUC(0-t) (µg·h/mL)
Give just the numeric value; µg·h/mL need not be written.

Provide AUC(0-t) value for the following compound: COc1ccc2c(c1)CN(Cc1ccc(C(=O)O)cc1)CCS2.O=C(O)/C=C/C(=O)O
172

---

ASSAY TEXT: Phase 1b study in RYR1-Related Myopathy patients, plasma pharmacokinetics
Type: in vivo, human (RYR1-Related Myopathy patients)
ASSAY CONDITIONS: human, plasma, po, 200 mg, single oral 200 mg, three subjects, time 4 hr
MEASURE: concentration at 4 h (ng/mL)
Give just the numeric value; ng/mL need not be written.

Provide concentration at 4 h value for the following compound: COc1ccc2c(c1)CN(Cc1ccc(C(=O)O)cc1)CCS2.O=C(O)/C=C/C(=O)O [Compound I]
14300
